Where these numbers come from: the supplement of paper PMC6089552

Tested on: A673/TR/shEF
measurementDescription: cell viability (LOESS-normalised, relative to median of negative controls) (log2 ratio); higher = more viable cells (less compound effect), active = hit call of the paper (over 3 MAD below the median)
conditionInfo: 25 µM; library screen: screen1; EWS-FLI1 expression: high (no doxycycline); treatment time: 72 h
Out of some 3,200 compounds screened, about 300 (9.4%) showed activity. The sample as a whole holds a higher share of actives than the screen did.
measureName: cell viability (log2)
Just the number, please, no unit after it.

N#CC(C#N)=Cc1ccc(O)cc1 | 0.0734
N#CC(C#N)=Cc1ccc(O)c(O)c1 | -0.0656
C/C(O)=C(\C#N)C(=O)Nc1cc(Br)ccc1Br | -0.451
COC[C@H]1OC(=O)c2coc3c2[C@@]1(C)C1=C(C3=O)[C@@H]2CCC(=O)[C@@]2(C)C[C@H]1OC(C)=O | -0.711
CC1(C)C(C=C(Cl)Cl)C1C(=O)OC(C#N)c1cccc(Oc2ccccc2)c1 (stereo not given) | -0.287

Req: Fill blank: measured cell viability (log2) of the compound CC(=O)c1c(O)c(C)c(O)c(Cc2c(O)c3c(c(C(=O)/C=C/c4ccccc4)c2O)OC(C)(C)C=C3)c1O is ____.
Resp: -0.306

Req: Fill blank: measured cell viability (log2) of the compound CC1(C)[C@H](C(=O)O[C@H](C#N)c2cccc(Oc3ccccc3)c2)[C@@H]1C=C(Br)Br is ____.
Resp: -0.0163

Req: Fill blank: measured cell viability (log2) of the compound N#CC(C#N)=Cc1ccc([N+](=O)[O-])c(O)c1 is ____.
Resp: -0.408

Req: Fill blank: measured cell viability (log2) of the compound N#CC(C#N)=Cc1cc(O)c(O)c(O)c1 is ____.
Resp: 0.0348

Req: Fill blank: measured cell viability (log2) of the compound C[C@@]12C(=O)OC(=O)[C@]1(C)[C@H]1CC[C@@H]2O1 is ____.
Resp: 0.0285

###

Tested on: A673/TR/shEF
measurementDescription: cell viability (LOESS-normalised, relative to median of negative controls) (log2 ratio); higher = more viable cells (less compound effect), active = hit call of the paper (over 3 MAD below the median)
conditionInfo: 0.25 µM; library screen: screen2; EWS-FLI1 expression: high (no doxycycline); treatment time: 72 h
Hit rate of the full screen: of about 3,200 compounds, about 300 (9.4%) showed activity. The sample as a whole holds a higher share of actives than the screen did.
In plain terms, low cell viability (log2), meaning strictly below 0.05, gives Condition met, and everything else gives Condition not met.

Would you please look over these solved cases?
C[C@]12CC[C@@H](O)C[C@@H]1CC[C@@H]1[C@@H]2CC[C@]2(C)[C@@H](O)CC[C@@H]12 | Condition met
CN1C2CCC1CC(OC(c1ccccc1)c1ccccc1N)C2 (stereo unspecified) | Condition not met
Nc1ccc2c(n1)[nH]c1ccccc12 | Condition not met
C=C(C)[C@H]1Cc2c(ccc3c2O[C@@H]2COc4cc(OC)c(OC)cc4[C@@H]2C3=O)O1 | Condition met
CCCCCCC(C)(C)c1ccc([C@H]2C[C@@H](O)CC[C@H]2CCCO)c(O)c1 | Condition met
C[C@@H]1C[C@@H]([C@H](O)CC2CC(=O)NC(=O)C2)C(=O)[C@@H](C)C1 | Condition not met

Req: Strictly below 0.05 in cell viability (log2)? CC(N)Cc1c[nH]c2ccc(O)cc12 (stereo unspecified)
Resp: Condition not met

Req: Strictly below 0.05 in cell viability (log2)? C[N+]1(C)CCc2cc3c(cc2[C@H]1[C@@H]1OC(=O)c2c1ccc1c2OCO1)OCO3
Resp: Condition not met

Req: Strictly below 0.05 in cell viability (log2)? Nc1ccc(CCN2CCN(c3cccc(C(F)(F)F)c3)CC2)cc1
Resp: Condition met

Req: Strictly below 0.05 in cell viability (log2)? NCC(CC(=O)O)c1ccc(Cl)cc1 (stereo unspecified)
Resp: Condition not met

Req: Strictly below 0.05 in cell viability (log2)? COc1ccccc1N1CCNCC1
Resp: Condition not met

###

System: A673/TR/shEF
measurementDescription: cell viability (LOESS-normalised, relative to median of negative controls) (log2 ratio); higher = more viable cells (less compound effect), active = hit call of the paper (over 3 MAD below the median)
conditionInfo: 2.5 µM; library screen: screen2; EWS-FLI1 expression: high (no doxycycline); treatment time: 72 h
The whole screen tested about 3,200 compounds, of which about 300 (9.4%) showed activity. The list comes from a sample in which actives are over-represented; it also holds close analogues and randomly drawn compounds.
// reported cell viability (log2) for each item listed
Just the number, please, no unit after it.

NC(Cc1cc(O)c(O)cc1O)C(=O)O (centres undefined) | 0.0832

Req: // lookup cell viability (log2) | system=A673/TR/shEF | key= Nc1ccc2c(n1)[nH]c1ccccc12
Resp: 0.0702

Req: // lookup cell viability (log2) | system=A673/TR/shEF | key= O=C(O)c1cc[c]([Hg][Cl])cc1
Resp: -0.0791

###

System: A673/TR/shEF
measurementDescription: cell viability (LOESS-normalised, relative to median of negative controls) (log2 ratio); higher = more viable cells (less compound effect), active = hit call of the paper (over 3 MAD below the median)
conditionInfo: 2.5 µM; library screen: screen2; EWS-FLI1 expression: low (doxycycline-induced shRNA knockdown); treatment time: 72 h
Among all 3,200 compounds or so, about 300 (9.4%) showed activity. The list comes from a sample in which actives are over-represented; it also holds close analogues and randomly drawn compounds.
In plain terms, low cell viability (log2), meaning strictly below 0.05, gives 1 (yes), and everything else gives 0 (no).

Would you please look over these solved cases?
Cc1o[nH]c(=O)c1CC(N)C(=O)O (stereo unspecified) | 1 (yes)
CC(=O)OCC1=C(C(=O)O)N2C(=O)[C@@H](NC(=O)CCC[C@@H](N)C(=O)O)[C@H]2SC1 | 0 (no)
CNc1ccc2oc(C[C@@H]3OC4(CC[C@@H]3C)O[C@H](C(C)C(=O)c3ccc[nH]3)[C@H](C)C[C@H]4C)nc2c1C(=O)O (stereo partly specified) | 0 (no)
c1ccc2c(N3CCNCC3)cccc2c1 | 1 (yes)
COc1cc(C=C(C#N)C#N)cc(O)c1O | 0 (no)

Req: Strictly below 0.05 in cell viability (log2)? CC(=O)[C@H]1CC[C@H]2[C@@H]3CC[C@H]4C[C@H](O)CC[C@]4(C)[C@H]3CC[C@]12C
Resp: 0 (no)

Req: Strictly below 0.05 in cell viability (log2)? CN1C2CCC1CC(OC(=O)c1cc(Cl)cc(Cl)c1)C2 (stereo unspecified)
Resp: 1 (yes)

Req: Strictly below 0.05 in cell viability (log2)? O=C1NCN(c2ccccc2)C12CCN(CC1COc3ccccc3O1)CC2 (stereo unspecified)
Resp: 0 (no)

###

Test system: A673/TR/shEF
measurementDescription: cell viability (LOESS-normalised, relative to median of negative controls) (log2 ratio); higher = more viable cells (less compound effect), active = hit call of the paper (over 3 MAD below the median)
conditionInfo: 2.5 µM; library screen: screen1; EWS-FLI1 expression: low (doxycycline-induced shRNA knockdown); treatment time: 72 h
Hit rate of the full screen: of about 3,200 compounds, about 300 (9.4%) showed activity. This is one part of a sample in which actives are shown more often than they occur.
// reported cell viability (log2) for each item listed
Just the number, please, no unit after it.

Example entries begin here.
CCCC1CCCCN1 (stereo unspecified) | 0.128
Cn1c(=O)c2c(ncn2CCCl)n(C)c1=O | 0.00538
c1cncc(C2CCCCN2)c1 (stereo unspecified) | 0.0957
CCN1C[C@]2(COC)[C@H](O)C[C@H](OC)[C@]34C1[C@H]([C@H](OC)[C@H]23)[C@]1(OC(C)=O)[C@H]2[C@@H](OC(=O)c3ccccc3)[C@](O)(C[C@H]24)[C@@H](OC)[C@@H]1O | 0.202

Turning to the following molecule.
Req: Fill blank: measured cell viability (log2) of the molecule NCC(CC(=O)O)c1ccc(Cl)cc1 (stereo unspecified) is ____.
Resp: 0.15

###

Tested on: A673/TR/shEF
measurementDescription: cell viability (LOESS-normalised, relative to median of negative controls) (log2 ratio); higher = more viable cells (less compound effect), active = hit call of the paper (over 3 MAD below the median)
conditionInfo: 0.25 µM; library screen: screen1; EWS-FLI1 expression: high (no doxycycline); treatment time: 72 h
The campaign covered roughly 3,200 compounds. About 300 (9.4%) showed activity. The sample as a whole holds a higher share of actives than the screen did.
Bench note: report the call from active, inactive

Req: Assay outcome for C[C@@H]1O[C@@H](O[C@H]2C[C@@H](O)[C@]3(CO)[C@H]4[C@H](O)C[C@]5(C)[C@@H](C6=CC(=O)OC6)CC[C@]5(O)[C@@H]4CC[C@]3(O)C2)[C@H](O)[C@H](O)[C@H]1O : what was it?
Resp: active
